Sourced from patent US20100260765A1

Listed here: items and their measured ELISA reading.
molecular target: T1, soluble KDR extracellular domain (ECD) (Calbiochem) (human, UniProt P35968 20-764); test: High Antigen ELISA, KDR coat 500 ng/mL, supernatant 1:225
T1 construct: extracellular domain; Bought protein; also called KDR-ECD; VEGF Receptor 2 D1-7, Cat. #676490
T1 sequence (P35968 20-764): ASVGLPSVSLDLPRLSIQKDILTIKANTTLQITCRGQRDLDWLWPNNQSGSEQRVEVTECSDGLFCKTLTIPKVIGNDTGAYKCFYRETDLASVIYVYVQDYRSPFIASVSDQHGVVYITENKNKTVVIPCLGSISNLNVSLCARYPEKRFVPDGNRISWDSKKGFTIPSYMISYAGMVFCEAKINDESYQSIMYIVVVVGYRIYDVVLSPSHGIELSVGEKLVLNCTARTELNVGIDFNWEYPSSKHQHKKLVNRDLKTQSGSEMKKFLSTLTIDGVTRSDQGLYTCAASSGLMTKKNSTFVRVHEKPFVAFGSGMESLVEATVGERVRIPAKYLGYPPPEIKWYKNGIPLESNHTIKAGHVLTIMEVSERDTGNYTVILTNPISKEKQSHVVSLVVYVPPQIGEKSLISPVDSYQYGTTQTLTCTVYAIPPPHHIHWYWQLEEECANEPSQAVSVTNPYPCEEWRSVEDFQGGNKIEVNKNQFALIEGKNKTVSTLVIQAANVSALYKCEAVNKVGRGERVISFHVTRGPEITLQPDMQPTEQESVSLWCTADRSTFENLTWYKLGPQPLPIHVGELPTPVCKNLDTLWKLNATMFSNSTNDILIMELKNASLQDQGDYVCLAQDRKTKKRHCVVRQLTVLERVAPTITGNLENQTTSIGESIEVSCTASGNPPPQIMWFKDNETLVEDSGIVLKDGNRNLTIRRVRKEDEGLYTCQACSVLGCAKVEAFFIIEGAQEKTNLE
value.type: ELISA reading

[[record]]
binder = "33B1 (antibody, V domains shown, Fully human mAb from XenoMouse hybridoma, tested as hybridoma supernatant) VH: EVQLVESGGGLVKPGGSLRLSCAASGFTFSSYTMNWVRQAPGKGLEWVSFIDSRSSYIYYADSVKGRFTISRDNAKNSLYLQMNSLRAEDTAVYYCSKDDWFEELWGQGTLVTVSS VL: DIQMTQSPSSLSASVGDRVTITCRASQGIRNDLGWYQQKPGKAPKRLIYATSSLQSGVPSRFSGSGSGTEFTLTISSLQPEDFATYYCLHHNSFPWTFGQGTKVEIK"
quantitative_readout = 1.62

[[record]]
binder = "31E11 (antibody, V domains shown, Fully human mAb from XenoMouse hybridoma, tested as hybridoma supernatant) VH: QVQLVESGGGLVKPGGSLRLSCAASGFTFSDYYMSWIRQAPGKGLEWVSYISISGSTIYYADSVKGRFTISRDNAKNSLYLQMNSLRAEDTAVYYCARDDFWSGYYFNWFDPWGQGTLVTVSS VL: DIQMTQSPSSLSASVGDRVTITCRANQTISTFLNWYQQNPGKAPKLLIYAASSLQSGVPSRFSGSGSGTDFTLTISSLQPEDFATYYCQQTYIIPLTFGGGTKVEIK"
quantitative_readout = 4.61

[[record]]
binder = "29F7 (antibody, V domains shown, Fully human mAb from XenoMouse hybridoma, tested as hybridoma supernatant) VH: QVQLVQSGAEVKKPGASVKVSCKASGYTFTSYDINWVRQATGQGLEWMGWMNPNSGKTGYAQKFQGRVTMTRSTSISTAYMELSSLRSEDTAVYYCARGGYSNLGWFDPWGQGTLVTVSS VL: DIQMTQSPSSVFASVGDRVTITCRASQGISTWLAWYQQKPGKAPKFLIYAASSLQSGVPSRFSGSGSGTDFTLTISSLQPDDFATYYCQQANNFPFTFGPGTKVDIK"
quantitative_readout = 4.26

[[record]]
binder = "30F6 (antibody, V domains shown, Fully human mAb from XenoMouse hybridoma, tested as hybridoma supernatant) VH: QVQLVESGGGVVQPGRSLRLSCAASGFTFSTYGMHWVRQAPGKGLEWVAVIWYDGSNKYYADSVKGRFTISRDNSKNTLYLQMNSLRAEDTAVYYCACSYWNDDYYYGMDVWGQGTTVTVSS VL: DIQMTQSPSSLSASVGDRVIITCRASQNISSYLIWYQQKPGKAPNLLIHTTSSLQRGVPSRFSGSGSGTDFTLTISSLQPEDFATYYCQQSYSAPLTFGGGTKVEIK"
quantitative_readout = 2.42

[[record]]
binder = "24C9 (antibody, V domains shown, Fully human mAb from XenoMouse hybridoma, tested as hybridoma supernatant) VH: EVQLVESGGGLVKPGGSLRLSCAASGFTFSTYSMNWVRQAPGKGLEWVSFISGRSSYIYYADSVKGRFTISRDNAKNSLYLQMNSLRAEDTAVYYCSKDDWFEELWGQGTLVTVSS VL: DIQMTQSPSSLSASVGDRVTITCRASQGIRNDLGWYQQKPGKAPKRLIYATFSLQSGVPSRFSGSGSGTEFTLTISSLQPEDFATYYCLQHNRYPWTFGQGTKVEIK"
quantitative_readout = 2.14

